ASSAYED TARGET: Dihydroorotate dehydrogenase (quinone), mitochondrial (Plasmodium falciparum (isolate 3D7))
EXPERIMENTAL DETAILS: PfDHODH enzyme inhibitors, primary screen, biochemical, C-terminal His tag, absorbance 600 nm (AID 1175);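 also: recombinant parasite enzyme with a five histidine tag at its C terminus; test concentration not given here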
RUN CONDITIONS: DCIP absorbance 600 nm, higher = more signal, called active from +8 up or from −8 down
OUTCOME MEASURE: composite z-score

>>> value_observed("CO[C@@H]1COC(=O)[C@H](CCSC)NC(=O)CC=C[C@@H](C)COC(=O)CCC[C@H]1C")
-0.555
>>> value_observed("COc1ccc(COC(=O)NN=C2C[C@@H](O)[C@@H](O)[C@@H]3[C@@H]4C(=O)N(Cc5ccccc5)C(=O)[C@@H]4CC[C@H]23)cc1")
-0.307
>>> value_observed("CC(=O)OC[C@H]1O[C@H](C#Cc2ccccc2)C=C[C@@H]1OC(C)=O")
-0.0765
>>> value_observed("O=C1[C@H]2[C@H]3[C@H](O)[C@H](O)CC(=NOCc4ccccc4)[C@H]3CC[C@H]2C(=O)N1Cc1ccc2c(c1)OCO2")
-0.51
>>> value_observed("O=C1C2=CC[C@H]3C(=O)N(c4cccc(Oc5ccccc5)c4)C(=O)[C@H]3[C@H]2[C@H](O)[C@@H]2O[C@H]12")
-1.2
>>> value_observed("O=C1[C@H]2[C@H]3[C@H](O)[C@H](O)CC(=NOC[C@@H](O)COCc4ccco4)[C@H]3CC[C@H]2C(=O)N1Cc1ccccc1")
-0.336
>>> value_observed("CO[C@H]1COC(=O)[C@@H](C)COC(=O)[C@H](COCc2ccccc2)NC(=O)CC=C[C@H]1C")
0.604
>>> value_observed("C[n+]1ccc(-c2ccc(CO)cc2)cc1")
-10

* * *

Documented z-score across a set of compounds
EXPERIMENTAL DETAILS: PSAC antagonists in infected red cells, primary screen, cell-based, P. falciparum Indochina, OD700, 1 h (AID 1154)
RUN CONDITIONS: P. falciparum Indochina infected RBC osmotic lysis, higher = more signal, called active from +8 up or from −8 down
OUTCOME MEASURE: z-score

>>> value_observed("CCCCC#C[C@@H]1C=C[C@H](OC(C)=O)[C@@H](COC(C)=O)O1")
0.604
>>> value_observed("O=C1CCCC=C1C(O)CCCCBr (stereo not given)")
3.79
>>> value_observed("C[C@H](ON=C1[C@H]2CCn3c(=O)n(-c4ccccc4)c(=O)n3[C@H]2[C@H](O)[C@@H]2O[C@H]12)c1cn([C@H](CO)Cc2ccccc2)nn1")
0.463
>>> value_observed("CCOC(=O)[C@H](CC(C)C)NC(=O)CCC1CC(OC(=O)NCc2cccc3ccccc23)CC2(CCCC(COC(=O)NCCCN3CCCC3=O)O2)O1 (stereo not given in full)")
0.51
>>> value_observed("CCOC(=O)[C@H](CC(C)C)NC(=O)CCC1CC(OC(=O)NCCc2ccc(F)cc2)CC2(CCCC(COC(=O)NCCc3ccccc3OC)O2)O1 (stereo not given in full)")
-1.58
>>> value_observed("CO[C@@H]1C=CCC(=O)N[C@@H](C)C(=O)OC[C@@H](OC)[C@H](C)CCCC(=O)OC[C@H]1C")
-1.15
>>> value_observed("CO[C@@H]1COC(=O)[C@H](CCSC)NC(=O)CC=C[C@@H](C)COC(=O)[C@H](C)NC(=O)CC=C[C@H]1C")
-0.0455
>>> value_observed("C=CC[C@@H]1C=C[C@H](ON=C[C@@H](C)[C@H](OCc2ccccc2)C(C)C)[C@@H](CO)O1")
1.64
>>> value_observed("CC(=O)OC[C@H]1O[C@H](C#Cc2ccccc2)C=C[C@@H]1OC(C)=O")
1.12
>>> value_observed("CCN1C(=O)[C@H]2[C@H]3[C@H](O)[C@H](O)CC(=NNC(=O)OCc4ccc(OC)cc4)[C@@H]3CC[C@H]2C1=O")
1.09
>>> value_observed("CCCNC(=O)OC[C@H]1O[C@H](c2ccccc2)C=C[C@@H]1Oc1ccc(OC)cc1")
0.906
>>> value_observed("COc1ccc(O[C@H]2C=C[C@@H](c3ccccc3)O[C@@H]2COC(=O)CCC(C)=NO[C@@H]2O[C@H](COC(C)=O)[C@@H](OC(C)=O)[C@H](OC(C)=O)[C@H]2OC(C)=O)cc1")
1.73
>>> value_observed("COC(=O)[C@@H]1CC[C@H](C)[C@@H](c2ccc(C)cc2)N1C(=O)c1ccc(C=NOCC[C@@H]2C=C[C@H](OC(C)=O)[C@@H](COC(C)=O)O2)cc1")
3.09
>>> value_observed("O=C(NN=C1C[C@@H](O)[C@@H](O)[C@@H]2[C@@H]3C(=O)N(C[C@@H]4CCCO4)C(=O)[C@@H]3CC[C@H]12)OCc1ccccc1")
1.35
>>> value_observed("CCOC(=O)CCN1C(=O)[C@H]2[C@H]3[C@H](O)[C@H](O)CC(=NNC(=O)OCc4ccccc4)[C@@H]3CC[C@H]2C1=O")
0.0026

* * *

ASSAYED TARGET: NADPH oxidase 2 (Homo sapiens) (UniProt P04839)
Sequence (P04839 whole entry, looked up): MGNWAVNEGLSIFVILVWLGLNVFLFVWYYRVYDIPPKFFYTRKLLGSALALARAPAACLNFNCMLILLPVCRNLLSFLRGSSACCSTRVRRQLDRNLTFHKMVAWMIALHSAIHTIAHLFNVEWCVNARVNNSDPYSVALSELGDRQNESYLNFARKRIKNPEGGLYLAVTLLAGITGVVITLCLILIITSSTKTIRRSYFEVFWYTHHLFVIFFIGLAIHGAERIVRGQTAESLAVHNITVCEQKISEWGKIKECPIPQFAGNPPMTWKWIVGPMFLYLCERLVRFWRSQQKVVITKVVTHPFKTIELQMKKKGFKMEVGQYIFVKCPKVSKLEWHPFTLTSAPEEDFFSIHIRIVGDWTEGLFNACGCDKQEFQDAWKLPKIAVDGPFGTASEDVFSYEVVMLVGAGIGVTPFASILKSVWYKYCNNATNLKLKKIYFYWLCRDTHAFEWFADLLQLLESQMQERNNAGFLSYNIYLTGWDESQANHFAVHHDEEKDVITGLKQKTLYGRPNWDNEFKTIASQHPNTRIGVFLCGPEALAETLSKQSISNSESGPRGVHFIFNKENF
EXPERIMENTAL DETAILS: NOX2-dependent H2O2 signal modulators, primary screen, NOX inhibitor project, cell-based, HEK293-NOX2, PMA-stimulated, Amplex Red fluorescence (AID 1159); also: test concentration not given here
RUN CONDITIONS: 45 min, higher = more signal, called active from +8 up or from −8 down
OUTCOME MEASURE: z-score

>>> value_observed("CO[C@@H]1COC(=O)CC=C[C@@H](C)[C@@H]2C=C[C@H](O)[C@@H](COC(=O)CC=C[C@H]1C)O2")
0.262
>>> value_observed("CC(C)C[C@H](NC(=O)CCC1CC(OC(=O)NCc2cccc3ccccc23)CC2(CCCC(COC(=O)NCc3ccccc3)O2)O1)C(=O)NCC(c1ccccc1)c1ccccc1 (some centres undefined)")
0.871
>>> value_observed("CC(CCN1CCCCc2nc(C)c(C)cc21)=NO[C@H](C)c1cn([C@H](CO)Cc2ccccc2)nn1")
-0.939
>>> value_observed("O=C1C=C[C@@H](O)[C@@H]2[C@@H]3C(=O)N(c4ccc(F)cc4F)C(=O)[C@@H]3CC[C@@H]12")
-0.632

* * *

Documented z-score across a set of compounds
EXPERIMENTAL DETAILS: yeast growth modulation, basal conditions, primary screen, YJM789 clinical isolate, OD600, 24 h (AID 1089);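 also: growth of clinical yeast isolate S. cerevisiae YJM 789 seeded 1000 cells per well; test concentration not given here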
RUN CONDITIONS: S. cerevisiae YJM789 growth, higher = more signal, called active from +8 up or from −8 down
OUTCOME MEASURE: z-score

>>> value_observed("CO[C@H]1COC(=O)[C@@H]2CCCN2C(=O)CC=C[C@@H](C)[C@H](OC)COC(=O)[C@@H](OCc2ccccc2)C=C[C@@H]1C")
0.14
>>> value_observed("COc1cccc([C@H]2Oc3ccc(OC)cc3C(=NOC[C@@H](O)COCc3ccco3)[C@@H]2O)c1")
-2.24
>>> value_observed("CC(CCN1CCCCc2nc(C)c(C)cc21)=NO[C@H](C)c1cn([C@H](CO)Cc2ccccc2)nn1")
-0.585
>>> value_observed("CC(C)=CCCC(C)=CCON=C1C[C@@H](O)[C@@H](O)[C@@H]2[C@@H]3C(=O)N(C4CCCCC4)C(=O)[C@@H]3CC[C@@H]12")
-0.671
>>> value_observed("Cn1c(=O)n2n(c1=O)[C@H]1[C@H](O)[C@@H]3O[C@@H]3C(=NOCc3ccccc3)[C@H]1CC2")
0.409
>>> value_observed("CCOC(=O)[C@H](Cc1ccccc1)NC(=O)CCC1CC(OC(=O)NCc2cccc3ccccc23)CC2(CCCC(COC(=O)NCc3cccc(C(F)(F)F)c3)O2)O1 (stereo partly drawn)")
0.655
>>> value_observed("COC(=O)[C@@H]1CC[C@H](C)[C@@H](c2ccc(C)cc2)N1C(=O)c1ccc(C=NOCC[C@@H]2C=C[C@H](OC(C)=O)[C@@H](COC(C)=O)O2)cc1")
1.09
>>> value_observed("CCCNC(=O)OC[C@H]1O[C@H](CCON=Cc2ccc(C(=O)N3[C@H](c4ccc(C)cc4)[C@@H](C)CC[C@H]3C(=O)OC)cc2)C=C[C@@H]1Oc1ccc(OC)cc1")
0.0299
>>> value_observed("CCOC(=O)[C@H](Cc1ccccc1)NC(=O)OC1CC(CCC2CC(CC)=NO2)OC2(CCCC(COC(=O)NCCC(C)C)O2)C1 (stereo partly drawn)")
-0.764
>>> value_observed("CCc1cc2c(nc1CC)CCN(CCC(C)=NOC[C@H]1O[C@H](c3ccccc3)C=C[C@@H]1Oc1ccc(OC)cc1)C2")
-0.837
>>> value_observed("CCCCC#C[C@@H]1C=C[C@H](OC(C)=O)[C@@H](COC(C)=O)O1")
0.248
>>> value_observed("C#CCCCON=C1C[C@@H](O)[C@@H](O)[C@@H]2[C@@H]3C(=O)N(C(C)(C)C)C(=O)[C@@H]3CC[C@@H]12")
0.266
>>> value_observed("CCCNC(=O)OC[C@H]1O[C@H](CCON=C(C)CCN2CCc3nc(CC)c(CC)cc3C2)C=C[C@@H]1Oc1ccc(OC)cc1")
-0.348
